tested on: HeLa Kyoto; assay: melting temperature (median over replicates), in situ; higher = more thermally stable; conditions: cell cycle stage: mitosis
Observed property: melting temperature (°C)
Return type: number; implicit unit °C.

What the record says about MDTLDRVVKPKTKRAKRFLEKREPKLNENIKNAMLIKGGNANATVTKVLKDVYALKKPYGVLYKKKNITRPFEDQTSLEFFSKKSDCSLFMFGSHNKKRPNNLVIGRMYDYHVLDMIELGIENFVSLKDIKNSKCPEGTKPMLIFAGDDFDVTEDYRRLKSLLIDFFRGPTVSNIRLAGLEYVLHFTALNGKIYFRSYKLLLKKSGCRTPRIELEEMGPSLDLVLRRTHLASDDLYKLSMKMPKALKPKKKKNISHDTFGTTYGRIHMQKQDLSKLQTRKMKGLKKRPAERITEDHEKKSKRIKKN [RPF2] : melting temperature is 53.4

What the record says about MPKGGRKGGHKGRARQYTSPEEIDAQLQAEKQKAREEEEQKEGGDGAAGDPKKEKKSLDSDESEDEEDDYQQKRKGVEGLIDIENPNRVAQTTKKVTQLDLDGPKELSRREREEIEKQKAKERYMKMHLAGKTEQAKADLARLAIIRKQREEAARKKEEERKAKDDATLSGKRMQSLSLNK [PDAP1] : melting temperature is 54.2

What the record says about MGDHAWSFLKDFLAGGVAAAVSKTAVAPIERVKLLLQVQHASKQISAEKQYKGIIDCVVRIPKEQGFLSFWRGNLANVIRYFPTQALNFAFKDKYKQLFLGGVDRHKQFWRYFAGNLASGGAAGATSLCFVYPLDFARTRLAADVGKGAAQREFHGLGDCIIKIFKSDGLRGLYQGFNVSVQGIIIYRAAYFGVYDTAKGMLPDPKNVHIFVSWMIAQSVTAVAGLVSYPFDTVRRRMMMQSGRKGADIMYTGTVDCWRKIAKDEGAKAFFKGAWSNVLRGMGGAFVLVLYDEIKKYV [SLC25A4] : melting temperature is 56.4

What the record says about MDNLSSEEIQQRAHQITDESLESTRRILGLAIESQDAGIKTITMLDEQKEQLNRIEEGLDQINKDMRETEKTLTELNKCCGLCVCPCNRTKNFESGKAYKTTWGDGGENSPCNVVSKQPGPVTNGQLQQPTTGAASGGYIKRITNDAREDEMEENLTQVGSILGNLKDMALNIGNEIDAQNPQIKRITDKADTNRDRIDIANARAKKLIDS [SNAP23] : melting temperature is 54

What the record says about MEPAEQPSELVSAEGRNRKAVLCQRCGSRVLQPGTALFSRRQLFLPSMRKKPALSDGSNPDGDLLQEHWLVEDMFIFENVGFTKDVGNIKFLVCADCEIGPIGWHCLDDKNSFYVALERVSHE [RABIF] : melting temperature is 51.7

What the record says about MGSQVSVESGALHVVIVGGGFGGIAAASQLQALNVPFMLVDMKDSFHHNVAALRASVETGFAKKTFISYSVTFKDNFRQGLVVGIDLKNQMVLLQGGEALPFSHLILATGSTGPFPGKFNEVSSQQAAIQAYEDMVRQVQRSRFIVVVGGGSAGVEMAAEIKTEYPEKEVTLIHSQVALADKELLPSVRQEVKEILLRKGVQLLLSERVSNLEELPLNEYREYIKVQTDKGTEVATNLVILCTGIKINSSAYRKAFESRLASSGALRVNEHLQVEGHSNVYAIGDCADVRTPKMAYLAGLHANIAVANIVNSVKQRPLQAYKPGALTFLLSMGRNDGVGQISGFYVGRLMVRLTKSRDLFVSTSWKTMRQSPP [AIFM2] : melting temperature is 53.7

----------
melting temperature values, listed per item
tested on: HeLa Kyoto; experiment: melting temperature (median over replicates), in situ; higher = more thermally stable; conditions: cell cycle stage: G1/S
Return type: number; implicit unit °C.

Value (melting temperature, HeLa Kyoto) for record MEEECRVLSIQSHVIRGYVGNRAATFPLQVLGFEIDAVNSVQFSNHTGYAHWKGQVLNSDELQELYEGLRLNNMNKYDYVLTGYTRDKSFLAMVVDIVQELKQQNPRLVYVCDPVLGDKWDGEGSMYVPEDLLPVYKEKVVPLADIITPNQFEAELLSGRKIHSQEEALRVMDMLHSMGPDTVVITSSDLPSPQGSNYLIVLGSQRRRNPAGSVVMERIRMDIRKVDAVFVGTGDLFAAMLLAWTHKHPNNLKVACEKTVSTLHHVLQRTIQCAKAQAGEGVRPSPMQLELRMVQSKRDIEDPEIVVQATVL [PDXK] = 55.5

Next:
Value (melting temperature, HeLa Kyoto) for record MRLPRRAALGLLPLLLLLPPAPEAAKKPTPCHRCRGLVDKFNQGMVDTAKKNFGGGNTAWEEKTLSKYESSEIRLLEILEGLCESSDFECNQMLEAQEEHLEAWWLQLKSEYPDLFEWFCVKTLKVCCSPGTYGPDCLACQGGSQRPCSGNGHCSGDGSRQGDGSCRCHMGYQGPLCTDCMDGYFSSLRNETHSICTACDESCKTCSGLTNRDCGECEVGWVLDEGACVDVDECAAEPPPCSAAQFCKNANGSYTCEECDSSCVGCTGEGPGNCKECISGYAREHGQCADVDECSLAEKTCVRKNENCYNTPGSYVCVCPDGFEETEDACVPPAEAEATEGESPTQLPSREDL [CRELD2] = 57.2

Value (melting temperature, HeLa Kyoto) for record MSESFDCAKCNESLYGRKYIQTDSGPYCVPCYDNTFANTCAECQQLIGHDSRELFYEDRHFHEGCFRCCRCQRSLADEPFTCQDSELLCNDCYCSAFSSQCSACGETVMPGSRKLEYGGQTWHEHCFLCSGCEQPLGSRSFVPDKGAHYCVPCYENKFAPRCARCSKTLTQGGVTYRDQPWHRECLVCTGCQTPLAGQQFTSRDEDPYCVACFGELFAPKCSSCKRPIVGLGGGKYVSFEDRHWHHNCFSCARCSTSLVGQGFVPDGDQVLCQGCSQAGP [FHL3] = 57.7

----------
system: HeLa Kyoto; assay: melting temperature (median over replicates), in situ; higher = more thermally stable; conditions: cell cycle stage: mitosis;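 note: HeLa Kyoto cells synchronized by double thymidine or nocodazole block, proteins quantified by TMT10plex mass spectrometry, three independent biological replicates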
Observed property: melting temperature (°C)
Return type: number; implicit unit °C.

Worked examples, 2 sequences total:
What the record says about MAGQHLPVPRLEGVSREQFMQHLYPQRKPLVLEGIDLGPCTSKWTVDYLSQVGGKKEVKIHVAAVAQMDFISKNFVYRTLPFDQLVQRAAEEKHKEFFVSEDEKYYLRSLGEDPRKDVADIRKQFPLLKGDIKFPEFFKEEQFFSSVFRISSPGLQLWTHYDVMDNLLIQVTGKKRVVLFSPRDAQYLYLKGTKSEVLNIDNPDLAKYPLFSKARRYECSLEAGDVLFIPALWFHNVISEEFGVGVNIFWKHLPSECYDKTDTYGNKDPTAASRAAQILDRALKTLAELPEEYRDFYARRMVLHIQDKAYSKNSE [TYW5] : melting temperature is 53.8

What the record says about MRLPRRAALGLLPLLLLLPPAPEAAKKPTPCHRCRGLVDKFNQGMVDTAKKNFGGGNTAWEEKTLSKYESSEIRLLEILEGLCESSDFECNQMLEAQEEHLEAWWLQLKSEYPDLFEWFCVKTLKVCCSPGTYGPDCLACQGGSQRPCSGNGHCSGDGSRQGDGSCRCHMGYQGPLCTDCMDGYFSSLRNETHSICTACDESCKTCSGLTNRDCGECEVGWVLDEGACVDVDECAAEPPPCSAAQFCKNANGSYTCEECDSSCVGCTGEGPGNCKECISGYAREHGQCADVDECSLAEKTCVRKNENCYNTPGSYVCVCPDGFEETEDACVPPAEAEATEGESPTQLPSREDL [CRELD2] : melting temperature is 59.6

Next:
What the record says about MKLYSLSVLYKGEAKVVLLKAAYDVSSFSFFQRSSVQEFMTFTSQLIVERSSKGTRASVKEQDYLCHVYVRNDSLAGVVIADNEYPSRVAFTLLEKVLDEFSKQVDRIDWPVGSPATIHYPALDGHLSRYQNPREADPMTKVQAELDETKIILHNTMESLLERGEKLDDLVSKSEVLGTQSKAFYKTARKQNSCCAIM [YKT6] : melting temperature is 54.6

What the record says about MSLKLQASNVTNKNDPKSINSRVFIGNLNTALVKKSDVETIFSKYGRVAGCSVHKGYAFVQYSNERHARAAVLGENGRVLAGQTLDINMAGEPKPDRPKGLKRAASAIYSGYIFDYDYYRDDFYDRLFDYRGRLSPVPVPRAVPVKRPRVTVPLVRRVKTNVPVKLFARSTAVTTSSAKIKLKSSELQAIKTELTQIKSNIDALLSRLEQIAAEQKANPDGKKKGDGGGAGGGGGGGGSGGGGSGGGGGGGSSRPPAPQENTTSEAGLPQGEARTRDDGDEEGLLTHSEEELEHSQDTDADDGALQ [RALY] : melting temperature is 49.4

What the record says about MWRSCLRLRDGGRRLLNRPAGGPSASMSPGPTIPSPARAYAPPTERKRFYQNVSITQGEGGFEINLDHRKLKTPQAKLFTVPSEALAIAVATEWDSQQDTIKYYTMHLTTLCNTSLDNPTQRNKDQLIRAAVKFLDTDTICYRVEEPETLVELQRNEWDPIIEWAEKRYGVEISSSTSIMGPSIPAKTREVLVSHLASYNTWALQGIEFVAAQLKSMVLTLGLIDLRLTVEQAVLLSRLEEEYQIQKWGNIEWAHDYELQELRARTAAGTLFIHLCSESTTVKHKLLKE [ATPAF2] : melting temperature is 56

What the record says about MWVCSTLWRVRTPARQWRGLLPASGCHGPAASSYSASAEPARVRALVYGHHGDPAKVVELKNLELAAVRGSDVRVKMLAAPINPSDINMIQGNYGFLPELPAVGGNEGVAQVVAVGSNVTGLKPGDWVIPANAGLGTWRTEAVFSEEALIQVPSDIPLQSAATLGVNPCTAYRMLMDFEQLQPGDSVIQNASNSGVGQAVIQIAAALGLRTINVVRDRPDIQKLSDRLKSLGAEHVITEEELRRPEMKNFFKDMPQPRLALNCVGGKSSTELLRQLARGGTMVTYGGMAKQPVVASVSLLIFKDLKLRGFWLSQWKKDHSPDQFKELILTLCDLIRRGQLTAPACSQVPLQDYQSALEASMKPFISSKQILTM [MECR] : melting temperature is 54.1

What the record says about MKPDETPMFDPSLLKEVDWSQNTATFSPAISPTHPGEGLVLRPLCTADLNRGFFKVLGQLTETGVVSPEQFMKSFEHMKKSGDYYVTVVEDVTLGQIVATATLIIEHKFIHSCAKRGRVEDVVVSDECRGKQLGKLLLSTLTLLSKKLNCYKITLECLPQNVGFYKKFGYTVSEENYMCRRFLK [GNPNAT1] : melting temperature is 57.5

What the record says about MEEMSGESVVSSAVPAAATRTTSFKGTSPSSKYVKLNVGGALYYTTMQTLTKQDTMLKAMFSGRMEVLTDSEGWILIDRCGKHFGTILNYLRDGAVPLPESRREIEELLAEAKYYLVQGLVEECQAALQNKDTYEPFCKVPVITSSKEEQKLIATSNKPAVKLLYNRSNNKYSYTSNSDDNMLKNIELFDKLSLRFNGRVLFIKDVIGDEICCWSFYGQGRKIAEVCCTSIVYATEKKQTKVEFPEARIYEETLNILLYEAQDGRGPDNALLEATGGAAGRSHHLDEDEERERIERVRRIHIKRPDDRAHLHQ [KCTD10] : melting temperature is 51.6

What the record says about MSGAGEALAPGPVGPQRVAEAGGGQLGSTAQGKCDKDNTEKDITQATNSHFTHGEMQDQSIWGNPSDGELIRTQPQRLPQLQTSAQVPSGEEIGKIKNGHTGLSNGNGIHHGAKHGSADNRKLSAPVSQKMHRKIQSSLSVNSDISKKSKVNAVFSQKTGSSPEDCCVHCILACLFCEFLTLCNIVLGQASCGICTSEACCCCCGDEMGDDCNCPCDMDCGIMDACCESSDCLEICMECCGICFPS [MDFIC] : melting temperature is 55.7

What the record says about MGNCCWTQCFGLLRKEAGRLQRVGGGGGSKYFRTCSRGEHLTIEFENLVESDEGESPGSSHRPLTEEEIVDLRERHYDSIAEKQKDLDKKIQKELALQEEKLRLEEEALYAAQREAARAAKQRKLLEQERQRIVQQYHPSNNGEYQSSGPEDDFESCLRNMKSQYEVFRSSRLSSDATVLTPNTESSCDLMTKTKSTSGNDDSTSLDLEWEDEEGMNRMLPMRERSKTEEDILRAALKYSNKKTGSNPTSASDDSNGLEWENDFVSAEMDDNGNSEYSGFVNPVLELSDSGIRHSDTDQQTR [AP1AR] : melting temperature is 59.6
